- Tested on: Vero E6 infected with SARS-CoV-2
- experimental-protocol: inhibition of SARS-CoV-2 cytopathic effect; higher = more antiviral protection, active = above 15
- experimental-parameters: 833.33 nM; 48 h
reported-metric: inhibition of SARS-CoV-2 cytopathic effect (%)

1) CC1(C)S[C@@H]2[C@H](NC(=O)[C@H](NC(=O)N3CCN(S(C)(=O)=O)C3=O)c3ccccc3)C(=O)N2[C@H]1C(=O)O [mezlocillin] : -0.82
2) O=C(CCCCCCNC(=O)c1cnc(N(c2ccccc2)c2ccccc2)nc1)NO : -4.05
3) COc1ccc(-n2nc(CCC(=O)N(C)O)cc2-c2ccc(Cl)cc2)cc1 [tepoxalin] : 1.81
4) CCOC(=O)Nc1cc(-c2ccc(C)c(NS(C)(=O)=O)c2)nn2c(C)nnc12 [bromosporine] : -0.48
5) Cn1cnc2c1c(=O)[nH]c(=O)n2C [theobromine] : 1.3
6) CC(C)(C)NCC(O)c1cc(Br)no1 (centres undefined) [broxaterol] : -0.44
7) CC(C)(C)c1cc(C(C)(C)C)c2c(c1)C(O)(C(F)(F)F)C(=O)O2 (racemic) : -0.2
8) CN(C)CCN1C(=O)c2cccc3cc(NC(N)=O)cc(c23)C1=O [unbs-5162] : 0.4
9) COc1ccc(CC2NCCc3cc(OC)c(OC)cc32)cc1OC (centres undefined) [tetrahydropapaverine] : -3.46
10) CCCCCCc1ccc(O)cc1O [hexylresorcinol] : 4.02
11) Cc1cnc(C(=O)O)c[n+]1[O-] [acipimox] : -2.17
12) [Cl][Ti][Cl].c1cc[cH-]c1.c1cc[cH-]c1 [titanocene-dichloride] : -1.85
13) CCOC(=O)OC(C)OC1=C(C(=O)Nc2ccccn2)N(C)S(=O)(=O)c2ccccc21 (centres undefined) [ampiroxicam] : 2.1
14) O=C(NO)c1ccc(O)c(O)c1 [didox] : -2.16
15) CCN(CC)CCNc1ccc(CO)c2sc3ccccc3c(=O)c12 [hycanthone] : -2.51
16) C#CCOC(=O)C1=CCCN(C)C1 [arecaidine-propargyl-ester] : -1.69
17) N#CC(c1ccc(Cl)cc1)c1c(Cl)cc(-n2ncc(=O)[nH]c2=O)cc1Cl (centres undefined) [diclazuril] : 1.84
18) Oc1cccc(Nc2ncc(F)c(Nc3cccc(O)c3)n2)c1 : -2.05
19) C[C@H]1[C@@H](O)O[C@@H]2O[C@@]3(C)CC[C@H]4[C@H](C)CC[C@@H]1[C@@]24OO3 : 1.43

###

- Tested on: Vero E6 infected with SARS-CoV-2
- experimental-protocol: inhibition of SARS-CoV-2 cytopathic effect; higher = more antiviral protection, active = above 15
- experimental-parameters: 100 nM; 48 h
Readings of inhibition of SARS-CoV-2 cytopathic effect for the listed compounds
reported-metric: inhibition of SARS-CoV-2 cytopathic effect (%)

1) C=CC1=C(C)c2cc3[nH]c(cc4nc(cc5[nH]c(cc1n2)c(C)c5CCC(=O)O)C(CCC(=O)O)=C4C)c(C)c3C=C : -0.13
2) Cn1c(-c2ccccc2)nnc1S(C)(=O)=O : 0.33
3) COc1ccc2[nH]cc(CCNC(C)=O)c2c1 : 2.24
4) CN1C(=O)N(c2cc(Cl)cc(Cl)c2)C(=O)[C@@]1(C)Cc1ccc(Br)cc1 : -0.15
5) OC[C@H]1O[C@@H](c2ccc(F)c(Cc3cc4ccccc4s3)c2)[C@H](O)[C@@H](O)[C@@H]1O : 0.41

###

Readings of morphology score for the listed compounds
- System: Vero E6 infected with SARS-CoV-2
- experimental-protocol: morphology score (similarity to uninfected cells); higher = more like uninfected cells
- experimental-parameters: 24 h
reported-metric: morphology score

1) CC1=C(C)C(=O)C(C(CCCCCC(=O)O)c2ccccc2)=C(C)C1=O (centres undefined) [seratrodast] (10 µM) : 0.0459
2) Cn1cc(-c2cnn3c(N)c(Br)c([C@@H]4CCCNC4)nc23)cn1 (10 µM) : 0.535
3) OC[C@@H](O)[C@H]1O[C@@H]2O[C@H](C(Cl)(Cl)Cl)O[C@@H]2[C@H]1O [chloralose] (10 µM) : 0.162
4) O=C(O)c1ccc(N2C(=O)/C(=C/c3ccc(-c4ccc([N+](=O)[O-])cc4)o3)C=C2c2ccccc2)cc1 (10 µM) : 0.184
5) Nc1nc(OCc2cc(Br)cs2)c2[nH]cnc2n1 [lomeguatrib] (10 µM) : 0.19
6) CC1(C)CC(O)CC(C)(C)N1[O] [tempol] (10 µM) : 0.209
7) CCOCOC[C@H](C[C@H](C)C(=O)NO)NC(=O)c1ccc(Oc2ccccc2)cc1 (10 µM) : 0.131
8) C[C@H](NCc1ccc(OCc2ccccc2F)cc1)C(N)=O [priralfinamide] (10 µM) : -0.175
9) CN(C)CCCSC(=N)N [dimaprit] (10 µM) : 0.245

###

- Tested on: Vero E6 infected with SARS-CoV-2
- experimental-protocol: inhibition of SARS-CoV-2 cytopathic effect; higher = more antiviral protection, active = above 15
- experimental-parameters: 8.33 nM; 48 h
reported-metric: inhibition of SARS-CoV-2 cytopathic effect (%)

1) CCCCOC(=O)c1ccc(N)cc1 [butamben] : 2.87
2) CCCc1c(OCC(O)COc2ccc3c(=O)cc(C(=O)O)oc3c2CCC)ccc(C(C)=O)c1O (stereo not given) : -0.15
3) Cc1cc(=O)oc2c(C=O)c(O)ccc12 : 2.74
4) Cc1ccc(NC(=O)CCCCCC(=O)Nc2ccccc2N)cc1 : 1.59
5) COc1ccc(C(=O)/C(Cc2cc(OC)c(OC)c(OC)c2)=C(\C(=O)O)c2ccc3c(c2)OCO3)cc1 : -0.48
6) CC(=O)Nc1cccc(-n2c(=O)n(C3CC3)c(=O)c3c(Nc4ccc(I)cc4F)n(C)c(=O)c(C)c32)c1 [trametinib] : -7.51
7) NC[C@H]1O[C@H](O[C@H]2[C@H](O)[C@@H](O[C@H]3O[C@H](CO)[C@@H](O)[C@H](N)[C@H]3O)[C@H](N)C[C@@H]2N)[C@H](N)[C@@H](O)[C@@H]1O [bekanamycin] : -0.02
8) COc1c(Nc2ccc(S(C)(=O)=O)nc2C)ncnc1OC1CCN(C(=O)OC(C)C)CC1 : 0.8
9) COC(=O)[C@H](CC(C)C)NC(=O)[C@@H](N)CC(C)C [leucylleucine-methyl-ester] : 0.78
10) CCOCOC[C@H](C[C@H](C)C(=O)NO)NC(=O)c1ccc(Oc2ccccc2)cc1 : 13.5
11) O=C1NC(=O)c2cc(Nc3ccc(F)cc3)c(Nc3ccc(F)cc3)cc21 : -0.56
12) COc1ccc2c(NC(=O)Nc3cccc(C(F)(F)F)n3)ccnc2c1 : 1.81
13) c1ccc(N2CCN(CCCOc3ccc4c(c3)OCO4)CC2)cc1 : -2.11
14) CCOC(=S)SSC(=S)OCC [dixanthogen] : -1.61
15) CC1(C)CCC(C)(C)c2cc(C(=O)Nc3ccc(C(=O)O)cc3)ccc21 : 2.74
16) Cc1nc2ccccc2c(-c2ccc3c4c(ccnc24)CCO3)c1[C@H](OC(C)(C)C)C(=O)O : -2.73
17) N[C@H]1C[C@@H]1c1ccccc1 (racemic) [tranylcypromine] : -0.11
18) Cn1cc(C(=O)c2cccc3ccccc23)cc1C(=O)O [napirimus] : -1.83
19) N[C@@H](Cc1c[nH]c2ccc(O)cc12)C(=O)O [5-hydroxytryptophan] : 0.52
20) O=C(O)CNC(=O)c1nc(Cl)c2ccccc2c1O : 0.65
21) O=C(NCc1ccccc1)c1csc(Nc2ccncn2)n1 [thiazovivin] : 1.22
22) Nc1nc(=O)n([C@@H]2O[C@H](CO)[C@@H](O)[C@@H]2F)cc1I [fiacitabine] : -1.55
23) C=CCn1c(=O)c2cnc(Nc3ccc(N4CCN(C)CC4)cc3)nc2n1-c1cccc(C(C)(C)O)n1 : 2.7
24) CC#CCn1c(N2CCC[C@@H](N)C2)nc2c1c(=O)n(Cc1nc(C)c3ccccc3n1)c(=O)n2C [linagliptin] : -3.62
25) N[C@H]1C(O)O[C@H](CO)[C@@H](O)[C@@H]1O (mixture of isomers) [glucosamine] : 0.07
26) C[C@@H]1C[C@H]2[C@@H]3CCC4=CC(=O)C=C[C@]4(C)[C@@]3(Cl)[C@@H](O)C[C@]2(C)[C@@]1(OC(=O)c1ccco1)C(=O)CCl : -2.64
27) NC(=O)NC(=O)Cc1ccccc1 [phenacemide] : 0.22
28) CCN(CC)CCNC(=O)COc1ccc(OC)cc1 [mefexamide] : 2.71
29) Cc1ccc(-n2nc(C(C)(C)C)cc2NC(=O)Nc2ccc(OCCN3CCOCC3)c3ccccc23)cc1 [doramapimod] : 1.14
30) Oc1cccc(-c2c3nc(c(-c4cccc(O)c4)c4ccc([nH]4)c(-c4cccc(O)c4)c4nc(c(-c5cccc(O)c5)c5ccc2[nH]5)CC4)C=C3)c1 [temoporfin] : 3.96
31) O=C1N[C@@H]2[C@@H](O)[C@@H](O)[C@H](O)[C@@H](CO)N2C1=O [kifunensine] : 1.46
32) CC(C)CC(NC(=O)OCC1c2ccccc2-c2ccccc21)C(=O)O (stereo in doubt) : 2.4
33) Nc1nc(F)nc2c1ncn2[C@@H]1O[C@H](COP(=O)(O)O)[C@@H](O)[C@@H]1O [fludarabine-phosphate] : 1.76
34) CS(=O)(=O)N1CCc2c(-c3cnc(N)nc3)nc(N3CCOCC3)nc21 : 1.07
35) CC(C)C[C@H](NC(=O)[C@H](CCc1ccccc1)NC(=O)CN1CCOCC1)C(=O)N[C@@H](Cc1ccccc1)C(=O)N[C@@H](CC(C)C)C(=O)[C@@]1(C)CO1 [carfilzomib] : -2.43
